# Assayed target: Human recombinant dopamine D2L receptor (Homo sapiens, UniProt P14416)
# Construct: expressed in transfected cells; host or cells: CHO
# Sequence (P14416 whole entry): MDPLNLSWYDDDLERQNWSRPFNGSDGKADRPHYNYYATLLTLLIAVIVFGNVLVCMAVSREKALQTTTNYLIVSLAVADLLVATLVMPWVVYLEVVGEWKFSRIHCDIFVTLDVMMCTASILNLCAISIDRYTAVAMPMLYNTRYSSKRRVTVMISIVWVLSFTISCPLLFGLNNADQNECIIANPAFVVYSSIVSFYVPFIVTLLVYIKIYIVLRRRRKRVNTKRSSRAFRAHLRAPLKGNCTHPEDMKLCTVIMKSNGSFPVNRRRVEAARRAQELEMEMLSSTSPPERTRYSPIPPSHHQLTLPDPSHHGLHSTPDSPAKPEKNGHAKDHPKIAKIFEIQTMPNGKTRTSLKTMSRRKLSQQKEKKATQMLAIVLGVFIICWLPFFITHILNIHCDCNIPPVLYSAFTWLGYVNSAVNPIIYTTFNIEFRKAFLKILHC
# Test protocol: D2L receptor radioligand binding inhibition ([3H]Spiperone)
# Measurement conditions: screened at 10 μM; mean of two replicates
Measured inhibition at 10 µM accompanies every entry in the list below.
Note: unit % is implicit; provide only the numeric part.

Here are 3 compounds together with their reported answers.
[
  {
    "Compound": "CCN(CCF)C(=O)C1C=C2c3cccc4[nH]cc(c34)CC2N(C)C1 (stereo not shown) [Compound 4, lysergic acid monofluoro diethylamide]",
    "Observation type": "inhibition at 10 µM",
    "Reading unit": "%",
    "Test result": 92.7
  },
  {
    "Compound": "CCN(CC)C(=O)C1C=C2c3cccc4[nH]cc(c34)CC2N(CCF)C1 (stereo not shown)",
    "Observation type": "inhibition at 10 µM",
    "Reading unit": "%",
    "Test result": 7.9
  },
  {
    "Compound": "CN1CC(C(=O)NCC(F)(F)F)C=C2c3cccc4[nH]cc(c34)CC21 (stereo not shown) [Compound 3, lysergic acid mono-(trifluoroethyl)amide]",
    "Observation type": "inhibition at 10 µM",
    "Reading unit": "%",
    "Test result": 63.1
  }
]

Query: Note down inhibition at 10 µM recorded for CN1CC(C(=O)N2CC3(COC3)C2)C=C2c3cccc4[nH]cc(c34)CC21 (stereo not shown)
Response: 78.8
